Target: T1, soluble KIR3DL1*002-Fc (human, UniProt P43629 22-338)
T1 construct: also called KIR3DL1 allele 002; Allele 002; not shown: Fc domain
T1 sequence (P43629 other isoform, or with tags, fused parts or gaps): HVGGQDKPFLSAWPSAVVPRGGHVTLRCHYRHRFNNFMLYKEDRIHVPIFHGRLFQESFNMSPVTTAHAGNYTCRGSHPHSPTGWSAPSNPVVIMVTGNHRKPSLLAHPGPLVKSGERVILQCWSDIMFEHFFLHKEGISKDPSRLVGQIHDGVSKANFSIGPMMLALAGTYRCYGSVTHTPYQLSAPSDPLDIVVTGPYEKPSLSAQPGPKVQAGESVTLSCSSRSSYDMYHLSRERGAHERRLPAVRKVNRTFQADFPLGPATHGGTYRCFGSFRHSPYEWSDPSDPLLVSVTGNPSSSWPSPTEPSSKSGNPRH
Test: BLI (ForteBio QK), hIgG1
Assignment: determine reported pKd for the given binders.
// pKd here means minus log10 of the molar concentration (mol/L)

In: Given the binder ET160-74 (antibody, human IgG1, V domains shown, Tested as human IgG1 (hIgG1), lambda light chain) VH: QVQLVQSGAEVKKPGSSVKVSCKASGGTFSSYAISWVRQAPGQGLEWMGWMNPNSGNTGYAQKFQGRVTMTRNTSISTAYMELSSLRSEDTAVYYCARYSFHLDGWGQGTLVTVSS VL: QSVLTQPPSVSAAPGQKVTISCSGSSSNVGNNYVSWYQQVPGTAPKLLIYDNNRRPSGIPDRFSGSKSGTSATLGITGLQTGDEADYYCGTWDNSLRVELFGGGTKVTVLG , what is its reported pKd?
Out: 8.07

In: pKd lookup needed for ET160-73 (antibody, human IgG1, V domains shown, Tested as human IgG1 (hIgG1), kappa light chain) VH: QVQLVQSGAEVKKPGESLKISCKGSGYSFTSYWIGWVRQMPGKGLEWMGIIYPGDSDTRYSPSFQGQVTISADKSISTAYLQWSSLKASDTAMYYCARGREQLWLDGMDVWGQGTTVTVSS VL: DVVMTQSPLSLPVTLGQPASISCRSTQSLVHSDGNTYLNWFQQRPGQSPRRLIYGVSNRDFGVPDRFSASGSGTDFTLKINRVEAEDVGVYYCMQGTHWPLTFGQGTKVEIKR , thanks.
Out: 7.79

In: Fill blank: measured pKd of the binder ET160-61 (antibody, human IgG1, V domains shown, Tested as human IgG1 (hIgG1), lambda light chain) VH: QVQLVESGGGLVQPGRSLRLSCAASGFTFDDYAMHWVRQAPGKGLEWVSGISWNSGSIGYADSVKGRFTISRDNAKNSLYLQMNSLRAEDTAVYYCASSLRYFEWPIDYWGQGTLVTVSS VL: NFMLTQPLSVSESPGKTVTISCTANGGSLASKYVQWFQQRPGSSPTTVIYDDNLRPSGVPDRFSGSIDTSSNSAALTISGLKTEDEADYYCQSYDNSSVVFGGGTKLTVLG is ____.
Out: 7.66

In: Reported pKd for ET160-72 (antibody, human IgG1, V domains shown, Tested as human IgG1 (hIgG1), lambda light chain) VH: QVQLVQSGGGVVRSGGSLRLTCAASGFTFGDYGMSWVRQAPGKGLEWVSGINWNGGGTGYADSVKGRFTISRDNAKDSLYLQMNSLRAEDTALYYCARVWGCGSTTCYEGADDAFDIWGQGTMVTVSS VL: LPVLTQPPSISGAPRQRVTISCSGARSNIGNNAVNWYQQVPGEAPKLLIFYDDQQPSGISGRFSGSKSGTSASLAISGLQSEDEADYYCAAWDDSLNGWVFGGGTKLTVLG : what is it?
Out: 7.94
